The reported measurements were obtained from the Immune Epitope Database (IEDB).

target: HLA-A*02:01; assay: IEDB peptide-MHC binding, purified MHC/competitive/fluorescence; bounds were set here for any values at or beyond the usual limits of such assays; conditions: source organism: Sudan ebolavirus
MEASURED METRIC: IC50 (µM)
Lab book: enter the figure in µM, no units written.

Req: Which IC50 value is on record for TITETAATI ?
Resp: 44.9

Req: Which IC50 value is on record for AIDFLLRRW ?
Resp: 55.2

----------
target: HLA-A*26:01; experiment: IEDB peptide-MHC binding, purified MHC/competitive/fluorescence; filed as Kd, often an IC50 or EC50 that approximates it; bounds were set here for any values at or beyond the usual limits of such assays; settings: source organism: Escherichia coli 536
MEASURED METRIC: Kd

Req: Which Kd value is on record for RAMDVYCHR ?
Resp: ≥ 20 µM
